The reported numbers originate from paper PMC9377253.

Test: MTT cytotoxicity assay (24 h), MRC-5
Type: cell-based
Conditions: human, MRC-5 embryonal lung fibroblast cells, 24 h incubation

compound: C=C1C(=O)O[C@@H]2[C@H]1CC[C@H](C)[C@]1(CCC(=O)O1)[C@@]2(C)O [Compound 4, psilostachyin]
value_modifier: =
IC50 at 24 h (µM): 41.8

compound: C=C1C(=O)O[C@@H]2C[C@H](C)[C@]3(O)CCC(=O)[C@@]3(C)C[C@H]12 [Compound 3, peruvin]
value_modifier: =
IC50 at 24 h (µM): 11.9

compound: C=C1C(=O)O[C@@H]2[C@H]1CC[C@H](C)[C@@H]1CCC(=O)O[C@@]21C [Compound 1, psilostachyin C]
value_modifier: =
IC50 at 24 h (µM): 52.7

compound: C=C1C(=O)O[C@@H]2[C@H]1CCC(C)=C(CCC(=O)OC)[C@@]2(C)O [Compound 5, 1′-noraltamisin]
value_modifier: >
IC50 at 24 h (µM): 100

compound: CC(=O)O[C@@H]1C[C@H]2[C@@H](C)CC[C@@H]3[C@@H](OC(=O)[C@@H]3C)[C@]2(C)C1=O [Compound 2, acetoxydihydrodamsin]
value_modifier: =
IC50 at 24 h (µM): 23.8

compound: C=C1C(=O)O[C@@H]2[C@H]1CC[C@H](C)[C@H](CCC(=O)OC)[C@@]2(C)O [Compound 7, 1,10-dihydro-1′-noraltamisin]
value_modifier: >
IC50 at 24 h (µM): 100

compound: COc1c(O)cc2oc(-c3ccc(O)c(O)c3)c(OC)c(=O)c2c1O [Compound 8, axillarin]
value_modifier: >
IC50 at 24 h (µM): 100
